Each recorded value in this set is attributed to patent US20250066745A1.

- PROCEDURE_TEXT: Luminescence activity assay of purified Gaussia luciferase mutants on coelenterazine derivative ZS2
- Type: biochemical
- Parameters: key: ratio of mutant luminescence intensity to wild-type Gaussia luciferase
- EXPERIMENTAL_PARAMETERS: Substrate ZS2 (Table 16)
EXPERIMENTAL_ENDPOINT: Activity of mutant relative to wild-type Gaussia luciferase without the signal peptide

- MOLECULE: "F26L N27D A30D V31L A32V S33N A36N T37A L40S: Gaussia luciferase mutant (protein, SIGNAL (1)..(17), Gaussia luciferase mutant) MGVKVLFALICIAVAEAKPTENNEDLDIVDLVNNFNATDSDADRGKLPGKKLPLEVLKEMEANARKAGCTRGCLICLSHIKCTPKMKKFIPGRCHTYEGDKESAQGGIGEAIVDIPEIPGFKDLEPMEQFIAQVDLCVDCTTGCLKGLANVQCSDLLKKWLPQRCATFASKIQGQVDKIKGAGGD"
  ENDPOINT_RESULT: 1.802
